Target: T1, 4H3782-bA
T1 chain: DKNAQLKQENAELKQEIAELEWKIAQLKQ
Experiment: two-hybrid library CCNG1;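 also: natural log of median RNA to DNA barcode read ratio; higher means stronger binding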
Reported Metric: interaction score

{"Binder": "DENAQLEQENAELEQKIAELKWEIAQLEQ [4H1193-bA]", "interaction score": 1.7}
{"Binder": "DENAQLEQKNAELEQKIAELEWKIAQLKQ [4H1446-bA]", "interaction score": 0.586}

(a) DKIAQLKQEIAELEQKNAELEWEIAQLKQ [4H2610-bA]
(b) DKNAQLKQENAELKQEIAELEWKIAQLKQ [4H3782-bA]
Q) Could you check which of a and b has a smaller value for interaction score? Choose, then provide that item's label.
A) a
